molecular target: aldose reductase (Bos taurus); construct: preparation of the enzyme from bovine lens; from tissue; host or cells: bovine lens; assay: in vitro aldose reductase inhibition (enzyme from bovine lens, modified Hayman and Kinoshita procedure); type: biochemical; details: 10^-7 molar; read-out: % Inhibition at Different Molar Concentrations (in vitro), 10^-7
Reported property: inhibition at 0.1 µM (%)
Unit % implied. Number only.

QUERY: Consider the compound CN(CC(=O)O)C(=S)c1cc(Br)cc2ccccc12 [R^1=CH3, R^2=H, R^3=3-Br, n=O] and give its recorded inhibition at 0.1 µM.
RESULT: 28

QUERY: Consider the compound CN(CC(=O)O)C(=S)c1cccc2cc(Br)ccc12 [R^1=CH3, R^2=H, R^3=6-Br, n=O] and give its recorded inhibition at 0.1 µM.
RESULT: 18

QUERY: Consider the compound `COc1c(Cl)cc(C(=S)N(C)CC(=O)O)c2cccc(S(=O)(=O)N(C)C)c12` and give its recorded inhibition at 0.1 µM.
RESULT: 19

QUERY: Consider the compound `COc1ccc(C(=S)N(C)CC(=O)O)c2cccc(S(=O)(=O)N(C)C)c12` and give its recorded inhibition at 0.1 µM.
RESULT: 6

QUERY: Consider the compound O=C(O)CN(C(=S)c1cccc2c(Br)cccc12)c1ccc(Cl)cc1 [R^1=4-Cl--C6 H4, R^2=H, R^3=5-Br, n=O] and give its recorded inhibition at 0.1 µM.
RESULT: 39

QUERY: Consider the compound CN(CC(=O)O)C(=S)c1cccc2ccc(Br)cc12 [R^1=CH3, R^2=H, R^3=7-Br, n=O] and give its recorded inhibition at 0.1 µM.
RESULT: 15
